Source: patent US5278045A

target: DuP 996 binding protein; assay: Radioreceptor screening assay (displacement of tritiated DuP 996); conditions: inhibition of binding of 10 nM tritiated DuP 996, pH 7.4, 25° C., 60 minutes
Readings of IC50 for the listed molecules
Use µM as the unit, but write only the number.

For orientation, consider the following solved cases.
>  <molecule>
c1cnc2c(c1)C(Cc1ccncc1)(Cc1ccncc1)c1cccnc1-2 [Compound 12]

>  <measurement name>
IC50

>  <unit string>
µM

>  <test value>
0.168

$$$$
>  <molecule>
O=C1N(c2ccccc2)c2ccccc2C1(Cc1ccncc1)CC1CCCO1 (centres unmarked) [Compound 18]

>  <measurement name>
IC50

>  <unit string>
µM

>  <test value>
1.04

$$$$
>  <molecule>
O=C1N(c2ccccc2)c2ccccc2C1(Cc1ccncc1)Cc1cn[nH]c1 (centres unmarked) [Compound 17]

>  <measurement name>
IC50

>  <unit string>
µM

>  <test value>
0.67

$$$$
>  <molecule>
O=C1c2c(Cl)cccc2C(Cc2ccncc2)(Cc2ccncc2)c2cccc(Cl)c21 [Compound 3]

>  <measurement name>
IC50

>  <unit string>
µM

>  <test value>
0.032

$$$$

For the next question, use this molecule.
Req: What value of measured IC50 is listed for Cc1ccc2c(c1)N(c1ccccc1)C(=O)C2(Cc1ccncc1)Cc1ccncc1 [Compound 14] ?
Resp: 0.198
